Data origin: PubChem BioAssay AID1963838

Test system: 855422-203-R-J1-PDC complex spheroid viability;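 further: spheroids exposed to compounds for seven days before readout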
Test: Anticancer human tumor 855422-203-R-J1-PDC patient-derived bladder carcinoma cell line growth inhibition [POLQ]
Details: curve of first compound; second compound 1 µM
Recorded IC50 by entry

molecule | valueRelationSign | IC50, nM
C=CC(=O)N1CCN(c2nc(=O)n(-c3c(C)ccnc3C(C)C)c3nc(-c4c(O)cccc4F)c(F)cc23)C(C)C1 (stereo unspecified) + COC1C(OC(N)=O)C(O)C(Oc2ccc3c(O)c(NC(=O)c4ccc(O)c(CC=C(C)C)c4)c(=O)oc3c2C)OC1(C)C | > | 10000
CC1COCCN1c1cc(C2(S(C)(=N)=O)CC2)nc(-c2ccnc3[nH]ccc23)n1 (stereo unspecified) + Cc1cccc(N(C)C(=O)C2C(O)CCN2c2nc(C)cc(C(F)(F)F)c2C#N)c1 | = | 2490
CC(=O)O[C@H]1C(=O)[C@@]2(C)[C@H]([C@H](OC(=O)c3ccccc3)[C@]3(O)C[C@H](OC(=O)[C@H](O)[C@@H](NC(=O)c4ccccc4)c4ccccc4)C(C)=C1C3(C)C)[C@]1(OC(C)=O)CO[C@@H]1C[C@@H]2O + COC1C(OC(N)=O)C(O)C(Oc2ccc3c(O)c(NC(=O)c4ccc(O)c(CC=C(C)C)c4)c(=O)oc3c2C)OC1(C)C | < | 9.49
CC1COCCN1c1cc(-c2ccnn2C)c2ccnc(-c3ccn[nH]3)c2n1 (stereo unspecified) + Cc1cccc(N(C)C(=O)C2C(O)CCN2c2nc(C)cc(C(F)(F)F)c2C#N)c1 | = | 165
CC1COCCN1c1cc(-c2ccnn2C)c2ccnc(-c3ccn[nH]3)c2n1 (stereo unspecified) + COC1C(OC(N)=O)C(O)C(Oc2ccc3c(O)c(NC(=O)c4ccc(O)c(CC=C(C)C)c4)c(=O)oc3c2C)OC1(C)C | = | 193
COc1ccc([C@@H](O)c2cc(-c3ncnc4cc(N5CCOCC5)ccc34)c(F)cc2Cl)nn1 + COC1C(OC(N)=O)C(O)C(Oc2ccc3c(O)c(NC(=O)c4ccc(O)c(CC=C(C)C)c4)c(=O)oc3c2C)OC1(C)C | = | 6170
CC1COCCN1c1cc(-c2ccnn2C)c2ccnc(-c3ccn[nH]3)c2n1 (stereo unspecified) + Nc1ccc(C#CCN(C(=O)Cc2ncc(C(F)(F)F)cc2C(F)(F)F)c2ccc(F)cc2)nn1 | = | 203
CNCc1ccc(-c2[nH]c3cc(F)cc4c3c2CCNC4=O)cc1 + Nc1ccc(C#CCN(C(=O)Cc2ncc(C(F)(F)F)cc2C(F)(F)F)c2ccc(F)cc2)nn1 | > | 10000
COc1cccc(OCCCN)c1-c1cc(Nc2cnc(C#N)cn2)n[nH]1 + Nc1ccc(C#CCN(C(=O)Cc2ncc(C(F)(F)F)cc2C(F)(F)F)c2ccc(F)cc2)nn1 | = | 25.2
C#Cc1c(F)ccc2cc(O)cc(-c3ncc4c(N5CC6CCC(C5)N6)nc(OCC56CCCN5CC(F)C6)nc4c3F)c12 (stereo unspecified) + Cc1cccc(N(C)C(=O)C2C(O)CCN2c2nc(C)cc(C(F)(F)F)c2C#N)c1 | > | 10000
COc1cc2cc(C(=O)CCC(=O)O)sc2cc1OC + COC1C(OC(N)=O)C(O)C(Oc2ccc3c(O)c(NC(=O)c4ccc(O)c(CC=C(C)C)c4)c(=O)oc3c2C)OC1(C)C | > | 10000
